Data origin, for the record: ChEMBL document CHEMBL1152288

measurement.description: Apparent elimination half life in Fischer 344 rat at 50 mg/kg, po
Format: ADME, organism-based
Set-up: dose 50 mg/kg, route oral
condition.summary: in vivo, read-out: beta t1/2 (converted)
measurement.type: half-life (h)
Give just the number in h; leave the unit off.

Respond only with half-life recorded for `CNCC[C@@H](Oc1ccccc1C)c1ccccc1`
2.8

----------
For each of the compounds below, state its Kp at 4 h.
measurement.description: Ratio of drug level in brain to plasma in Sprague-Dawley rat at 30 mg/kg, po after 4 hrs
Format: ADME, organism-based
Parameters: dose 30 mg/kg, route oral
Note: the reply should be a number with no unit written.

Respond only with Kp at 4 h recorded for `C=C(F)CN(CC)C(=O)[C@@]1(c2cccs2)C[C@H]1CN`
1.1

Respond only with Kp at 4 h recorded for `NC[C@@H]1C[C@@]1(C(=O)N1Cc2ccccc2C1)c1cccs1`
1.8

Respond only with Kp at 4 h recorded for `C=CCN(CC=C)C(=O)[C@@]1(c2cccs2)C[C@H]1CN`
1.4

Respond only with Kp at 4 h recorded for `C#CCN(CC)C(=O)[C@@]1(c2cccs2)C[C@H]1CN`
0.3

----------
For each of the molecules below, state its logD.
measurement.description: Lipophilicity, log D of the compound
Assay type: physicochemical
condition.summary: octanol/water
Note: the reply should be a number with no unit written.

Respond only with logD recorded for CCN(CC)C(=O)C1(c2ccccc2)CC1CN (stereo not drawn)
0.2

Respond only with logD recorded for `C=C(F)CN(CC)C(=O)[C@@]1(c2cccs2)C[C@H]1CN`
0.2

Respond only with logD recorded for `C=CCN(Cc1nccs1)C(=O)[C@@]1(c2cccs2)C[C@H]1CN`
-0.4

Respond only with logD recorded for `C=CCN(CC=C)C(=O)[C@@]1(c2cccs2)C[C@H]1CN`
0.3

Respond only with logD recorded for `C#CCN(CC)C(=O)[C@@]1(c2cccs2)C[C@H]1CN`
0.1

Respond only with logD recorded for `NC[C@@H]1C[C@@]1(C(=O)N1Cc2ccccc2C1)c1cccs1`
0.5

Respond only with logD recorded for `C#CCN(CC#C)C(=O)[C@@]1(c2cccs2)C[C@H]1CN`
0.2

Respond only with logD recorded for `CCN(CC)C(=O)[C@]1(c2ccccc2)C[C@H]1CN`
-0.2

----------
measurement.description: Apparent oral clearance in Sprague-Dawley rat at 30 mg/kg, po
Format: ADME, organism-based
Set-up: dose 30 mg/kg, route oral
condition.summary: in vivo
For each of the compounds below, state its CL/F.
Write your answer as a measured quantity: the number, then the unit.

Respond only with CL/F recorded for `C=C(F)CN(CC)C(=O)[C@@]1(c2cccs2)C[C@H]1CN`
334 mL/min/kg

Respond only with CL/F recorded for `C#CCN(CC)C(=O)[C@@]1(c2cccs2)C[C@H]1CN`
156 mL/min/kg

Respond only with CL/F recorded for `C=CCN(CC=C)C(=O)[C@@]1(c2cccs2)C[C@H]1CN`
444 mL/min/kg

Respond only with CL/F recorded for `NC[C@@H]1C[C@@]1(C(=O)N1Cc2ccccc2C1)c1cccs1`
1840 mL/min/kg

----------
measurement.description: Tmax in mouse at 5 mg/kg, iv or 30 mg/kg, po
Format: ADME, organism-based
condition.summary: in vivo
measurement.type: Tmax (min)
Give just the number in min; leave the unit off.

Respond only with Tmax recorded for `C=CCN(CC=C)C(=O)[C@@]1(c2cccs2)C[C@H]1CN.Cl`
18
